Study system: T1, TMPRSS6 expressed in transfected HepG2 cells (HAMP-luciferase reporter assay) (UniProt Q8IU80 1-811, limits assumed)
T1 sequence (looked up): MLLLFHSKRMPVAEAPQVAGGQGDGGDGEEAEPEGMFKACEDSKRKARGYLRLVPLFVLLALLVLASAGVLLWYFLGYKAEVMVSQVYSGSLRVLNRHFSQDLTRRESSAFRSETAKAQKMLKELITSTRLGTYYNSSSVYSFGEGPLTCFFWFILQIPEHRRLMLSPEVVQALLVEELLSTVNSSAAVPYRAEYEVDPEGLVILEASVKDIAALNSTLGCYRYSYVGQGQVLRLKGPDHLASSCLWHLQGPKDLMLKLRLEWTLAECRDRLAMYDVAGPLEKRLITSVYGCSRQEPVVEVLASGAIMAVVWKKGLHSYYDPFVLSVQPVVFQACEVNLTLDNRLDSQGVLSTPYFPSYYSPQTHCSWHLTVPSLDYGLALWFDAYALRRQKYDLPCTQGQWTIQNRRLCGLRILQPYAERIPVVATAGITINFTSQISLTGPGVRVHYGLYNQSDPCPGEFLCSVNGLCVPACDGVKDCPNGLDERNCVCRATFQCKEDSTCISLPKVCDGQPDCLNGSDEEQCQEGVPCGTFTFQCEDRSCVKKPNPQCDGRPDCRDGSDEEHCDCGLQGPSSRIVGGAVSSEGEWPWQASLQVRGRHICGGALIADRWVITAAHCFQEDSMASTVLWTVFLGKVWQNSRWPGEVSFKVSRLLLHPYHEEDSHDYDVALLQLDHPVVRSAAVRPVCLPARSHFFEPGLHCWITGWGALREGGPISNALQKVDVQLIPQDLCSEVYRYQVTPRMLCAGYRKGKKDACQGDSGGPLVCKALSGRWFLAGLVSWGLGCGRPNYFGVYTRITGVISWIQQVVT
Assay overview: cell-based or functional assay
Entries and their measured EC50, HAMP promoter activity (HAMP-luciferase reporter assay in HepG2 cells) follow.
Quick note: give the figure in µg/mL, leave out the unit.

Worked cases, EC50, HAMP promoter activity (HAMP-luciferase reporter assay in HepG2 cells) given:
GET /value?item= hzMWTx-002Var anti-TMPRSS6 antibody (antibody, human IgG1, kappa, N297A, V domains shown, Humanized variant of MWTx-002, human IgG1/kappa) VH: EVQLVQSGAEVKKPGASVKVSCKASGFNIKDYYIHWVRQATGQGLEWMGRIDPEDAESEYAPKFQGRVTITADTSTDTAYMELSSLRSEDTAVYYCTRGDSMMVTYFDYWGQGTLVTVSS VL: DIQMTQSPSSLSASVGDRVTITCKASQDVSTAVAWYQQKPGKAPKLLIYWAFTRHTGVPSRFSGSGSGTDYALTISSLQPEDFATYYCQQHYRSPWTFGGGTKVEIKR &field=EC50, HAMP promoter activity (HAMP-luciferase reporter assay in HepG2 cells) returns 0.3

GET /value?item= MWTx-001 anti-TMPRSS6 antibody (antibody, mouse IgG2a, kappa, V domains shown, Mouse monoclonal antibody from a hybridoma (ATCC PTA-126759)) VH: QVQLQQPGAELAKPGASVKMSCKASGYTFTSYWITWVKQRPGQDLEWIGNIYPGSGSTYYNEKFKSKATLTVDTSSRTAYMQLSSLTSADSAVYYCAPYDSDYAMDYWGQGTSVTVSS VL: DIKMTQSPSSMYASLGERVTITCKASQDINNYLSWFQQKPGKSPKTLIYRANRLVDGVPSRVSGSGSGQDYSLTISSLEYEDVGIYFCLQYDEFPLTFGAGTKLELKR &field=EC50, HAMP promoter activity (HAMP-luciferase reporter assay in HepG2 cells) returns 3

GET /value?item= MWTx-003 anti-TMPRSS6 antibody (antibody, mouse IgG2b, kappa, V domains shown, Mouse monoclonal antibody from a hybridoma (ATCC PTA-126761); also called r4K12B (recombinantly expressed version, same HC and LC)) VH: EVQLQQSGAELVKPGASVKLSCTASGFNIEDYYIHWVKERTEQGLEWIGRIDPEDGETTYAPQFQGKATIIPDTSSNTAYMQLSSLTSEDAAVYYCARSIYLDPMDYWGQGTSVTVSS VL: DIVMTQSHKFMSTSVGDRVSITCKASQDVTTAVAWYQQKPGQSPKILIYWATTRHTGVPDRFTGSISGTTYILTISSVQAEDLALYYCQQHYSTPYTFGGGTKLEIKR &field=EC50, HAMP promoter activity (HAMP-luciferase reporter assay in HepG2 cells) returns 2

GET /value?item= hzMWTx-003Var anti-TMPRSS6 antibody (antibody, human IgG1, kappa, L234A L235A, V domains shown, Humanized variant of MWTx-003, human IgG1/kappa) VH: QVQLVQSGAEVKKPGASVKVSCKASGFNIEDYYMHWVRQAPGQRLEWMGRIDPEDAETTYSPKFQGRVTIIPDTSANTAYMELSSLRSEDTAVYYCARSIYLDPMDYWGQGTLVTVSS VL: DIQMTQSPKSLSASVGDRVTITCRASQDVTTALAWYQQKPGQSPKLLIYWATTRHSGVPSRFSGSGSGTDFTLTISSLQPEDFATYYCQQHYSTPYTFGQGTKLEIKR &field=EC50, HAMP promoter activity (HAMP-luciferase reporter assay in HepG2 cells) returns 0.3

GET /value?item= hzMWTx-001Var anti-TMPRSS6 antibody (antibody, human IgG1, kappa, N297A, V domains shown, Humanized variant of MWTx-001, human IgG1/kappa) VH: EVQLVQSGAEVKKPGASVKVSCKASGYTFTSYWITWVRQAPGQRLEWIGNIYPGSGSTYYNEKFKSKATITRDTSSRTAYMELSSLRSEDTAVYYCAPYDADYAMDYWGQGTLVTVSS VL: DIQMTQSPSSLSASVGDRVTITCKASQDISNYLSWFQQKPGKAPKLLIYRANRLVEGVPSRFSGSGSGTDFTLTISSLQPEDFATYFCLQYDEFPLTFGGGTKVEIKR &field=EC50, HAMP promoter activity (HAMP-luciferase reporter assay in HepG2 cells) returns 0.8

Next:
GET /value?item= MWTx-002 anti-TMPRSS6 antibody (antibody, mouse IgG2b, kappa, V domains shown, Mouse monoclonal antibody from a hybridoma (ATCC PTA-126760)) VH: EVQLQQSGAELVKPGASVKLSCTASGFNIKDYYIHWVKERTEQGLEWFGRIDPEDGESEYAPKFQGKATLTADTSSNTAYLQLSSLTSEDTAVYYCTRGDSMMVTYFDYWGQGTTLTVSS VL: DIVMTQSHKFMSTSVGDRVSITCKASQDVSTAVAWYQQKPGQSPKLLIYWAFTRHTGVPDRFTSTGSGTDYALTISSVQAEDLALYYCQQHYRSPWTFGGGTKLEIKR &field=EC50, HAMP promoter activity (HAMP-luciferase reporter assay in HepG2 cells) returns 1
